assay: Measurement of partition coefficient based on the octanol extraction method; assay type: physicochemical; conditions: 1-octanol/water; water saturated 1-octanol / 1-octanol saturated water, 20 to 25±2° C.; read-out: logPoctanol value
Reported Endpoint: logP at 5 min
The response must contain the number and no unit.

Inquiry: Return logP at 5 min for the following compound: `[123I]c1ccc2nc(-c3ccc(-n4ccnn4)cc3)cn2c1`
Reply text: 1.98
